# tested_system: human chemokine receptor CXCR7 (Homo sapiens (Human), UniProt P25106)
# Sequence (P25106 whole entry): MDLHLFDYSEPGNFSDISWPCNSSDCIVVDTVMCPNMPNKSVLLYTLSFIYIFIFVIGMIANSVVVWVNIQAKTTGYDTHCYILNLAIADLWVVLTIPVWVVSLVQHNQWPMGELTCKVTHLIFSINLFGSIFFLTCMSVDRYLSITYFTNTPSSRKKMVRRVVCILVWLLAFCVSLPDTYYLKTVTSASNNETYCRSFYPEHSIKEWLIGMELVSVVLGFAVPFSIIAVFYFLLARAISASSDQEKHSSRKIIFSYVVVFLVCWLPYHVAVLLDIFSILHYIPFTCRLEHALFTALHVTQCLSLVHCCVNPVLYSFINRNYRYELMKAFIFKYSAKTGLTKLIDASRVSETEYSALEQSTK
# procedure_summary: Tango CXCR7-bla U2OS beta-arrestin recruitment assay (beta-lactamase reporter, FRET), antagonism of CXCL12/SDF1-α
# Assay type: cell-based
# condition_set: antagonistic effect on CXCR7; Tango CXCR7-bla U2OS cells, CXCL12/SDF1-α at its EC80
For each of the compounds below, state its IC50.
Report the value in nM with no unit label.

[ask] Specify IC50 for CC(NC(=O)[C@H]1CN(C2CCCC2)CC[C@@H]1NC(=O)c1cc(-c2ccc(F)cc2F)on1)c1nc[nH]n1 (stereo partly drawn) [Example 4.038] and stop.
[reply] 522

[ask] Specify IC50 for C[C@@H](NC(=O)[C@@H]1CN(C2CCCCC2)CC[C@H]1NC(=O)c1cc(-c2c(F)cc(F)cc2F)on1)c1ccccn1 (racemic) [Example 1.121] and stop.
[reply] 4

[ask] Specify IC50 for O=C(N[C@H]1CCNC[C@@H]1C(=O)NC1(c2ncccn2)CC1)c1nnc(-c2ccc(F)cc2F)s1 [Example 2.104] and stop.
[reply] 195

###

# tested_system: human chemokine receptor CXCR7 (Homo sapiens (Human), UniProt P25106)
# procedure_summary: Tango CXCR7-bla U2OS beta-arrestin recruitment assay (beta-lactamase reporter, FRET), antagonism of CXCL12/SDF1-α
# Format: cell-based
# condition_set: antagonistic effect on CXCR7; Tango CXCR7-bla U2OS cells, CXCL12/SDF1-α at its EC80
For each of the compounds below, state its pIC50.
Please report pIC50 as the negative decimal logarithm of the molar concentration, giving only the number.

[ask] Specify pIC50 for C[C@@H](NC(=O)[C@@H]1CN(C2CCCCC2)CC[C@H]1NC(=O)c1cn(-c2ccc(F)cc2F)nn1)c1cnccn1 (relative stereo) [Example 1.127] and stop.
[reply] 6.44

[ask] Specify pIC50 for O=C(N[C@H]1CCN(C2CCCC2)C[C@@H]1C(=O)NC1(c2ncccn2)CC1)c1cc(-c2c(F)cc(F)cc2F)on1 (single isomer, unassigned) [Example 1.176a] and stop.
[reply] 8.30

[ask] Specify pIC50 for CC(NC(=O)[C@H]1CN(C2CCCC2)CC[C@@H]1NC(=O)c1cc(-c2ccc(F)cc2F)on1)c1ccon1 (stereo partly drawn) [Example 4.04] and stop.
[reply] 7.07

[ask] Specify pIC50 for CC1(NC(=O)[C@@H]2CN(C3CCCCC3)CC[C@H]2NC(=O)c2cc(-c3ccc(F)cc3F)on2)CC1 [Example 4.018] and stop.
[reply] 6.46

[ask] Specify pIC50 for O=C(N[C@@H]1CCN(C2CCCCC2)C[C@H]1C(=O)NC1CCCC1)c1cc(-c2ccc(F)cc2F)on1 (racemic) [Example 1.003] and stop.
[reply] 6.25

[ask] Specify pIC50 for O=C(N[C@@H]1CCN(CC2CC2)C[C@H]1C(=O)NC1(c2ncccn2)CC1)c1cc(-c2cccc(F)c2F)on1 (racemic) [Example 1.199] and stop.
[reply] 6.56

###

# tested_system: human chemokine receptor CXCR7 (Homo sapiens (Human), UniProt P25106)
# procedure_summary: Tango CXCR7-bla U2OS beta-arrestin recruitment assay (beta-lactamase reporter, FRET), antagonism of CXCL12/SDF1-α
# Format: cell-based
# condition_set: antagonistic effect on CXCR7; Tango CXCR7-bla U2OS cells, CXCL12/SDF1-α at its EC80
For each of the molecules below, state its IC50.
Report the value in nM with no unit label.

[ask] // fetch IC50; item: CN(C)C(=O)[C@@H]1CN(C2CCC(C)(C)C2)CC[C@H]1NC(=O)c1cc(-c2ccc(F)cc2F)on1 (stereo partly shown) [Example 2.018] ; system: human chemokine receptor CXCR7 (Homo sapiens (Human), UniProt P25106)
[reply] 145

[ask] // fetch IC50; item: COc1cccc(C2(NC(=O)[C@H]3CN(CC4CC4)CC[C@@H]3NC(=O)c3cc(-c4ccc(F)cc4F)on3)CC2)c1 [Example 4.059] ; system: human chemokine receptor CXCR7 (Homo sapiens (Human), UniProt P25106)
[reply] 61

[ask] // fetch IC50; item: CC1(NC(=O)[C@H]2CN(C3CCCCC3)CC[C@@H]2NC(=O)c2cc(-c3ccc(F)cc3F)on2)CCC1 [Example 4.006] ; system: human chemokine receptor CXCR7 (Homo sapiens (Human), UniProt P25106)
[reply] 149

[ask] // fetch IC50; item: O=C(N[C@H]1CCN(C2CCC2)C[C@@H]1C(=O)NC1(c2ncccn2)CC1)c1nnc(-c2ccc(F)cc2F)s1 [Example 2.105] ; system: human chemokine receptor CXCR7 (Homo sapiens (Human), UniProt P25106)
[reply] 60

[ask] // fetch IC50; item: O=C(N[C@H]1CCN(CC2CC2)C[C@@H]1C(=O)NC1(c2ccc(F)cc2)CC1)c1cc(-c2ccc(F)cc2F)on1 [Example 4.062] ; system: human chemokine receptor CXCR7 (Homo sapiens (Human), UniProt P25106)
[reply] 141

[ask] // fetch IC50; item: O=C(N[C@@H]1CCN(CC2CC2)C[C@H]1C(=O)NC1(c2ncccn2)CC1)c1noc(-c2ccc(F)cc2F)c1F (single isomer, unassigned) [Example 3.022a] ; system: human chemokine receptor CXCR7 (Homo sapiens (Human), UniProt P25106)
[reply] 25

[ask] // fetch IC50; item: CN(CCc1ccccn1)C(=O)[C@@H]1CN(C2CCCCC2)CC[C@H]1NC(=O)c1cc(-c2ccc(F)cc2F)on1 (racemic) [Example 1.075] ; system: human chemokine receptor CXCR7 (Homo sapiens (Human), UniProt P25106)
[reply] 44

###

For each of the compounds below, state its log10 IC50.
# tested_system: UniProt:P25106
# procedure_summary: Tango CXCR7-bla U2OS beta-arrestin recruitment assay (beta-lactamase reporter, FRET), antagonism of CXCL12/SDF1-α
# Format: cell-based
# condition_set: antagonistic effect on CXCR7; Tango CXCR7-bla U2OS cells, CXCL12/SDF1-α at its EC80
Values are log10 of IC50 in nM.

[ask] Specify log10 IC50 for O=C(N[C@H]1CCN(CC2CC2)C[C@@H]1C(=O)NC1(c2ncccn2)CC1)c1ncc(-c2ccc(F)cc2)o1 and stop.
[reply] 2.15

[ask] Specify log10 IC50 for O=C(N[C@@H]1CCN(CC2CC2)C[C@H]1C(=O)NC1(c2ncccn2)CC1)c1cc(-c2c(F)cc(F)cc2F)on1 (single isomer, unassigned) [Example 30.20b] and stop.
[reply] 0.60

[ask] Specify log10 IC50 for C[C@@H](NC(=O)[C@@H]1CN(CC2CC2)CC[C@H]1NC(=O)c1cc(-c2ccc(F)cc2F)no1)C1CCC1 (relative stereo) and stop.
[reply] 2.02

[ask] Specify log10 IC50 for CN(C)C(=O)[C@@H]1CN(C2CCCCC2)CC[C@H]1NC(=O)c1cc(-c2ccc(F)cc2F)no1 (racemic) and stop.
[reply] 2.05

[ask] Specify log10 IC50 for CN(CCO)C(=O)[C@@H]1CN(C2CCCCC2)CC[C@H]1NC(=O)c1cc(-c2ccc(F)cc2F)on1 (racemic) and stop.
[reply] 2.30

[ask] Specify log10 IC50 for C[C@@H](NC(=O)[C@@H]1CN(C2CCCCC2)CC[C@H]1NC(=O)c1cc(-c2ccc(F)cc2F)on1)c1ncccc1F (relative stereo) and stop.
[reply] 0.00

[ask] Specify log10 IC50 for CC(C)NC(=O)[C@@H]1CN(C2CCCCC2)CC[C@H]1NC(=O)c1cc(-c2ccc(F)cc2F)on1 (racemic) and stop.
[reply] 2.60

[ask] Specify log10 IC50 for CN(C)C(=O)[C@@H]1CN(C2CCCCC2)CC[C@H]1NC(=O)c1cc(-c2ccc(F)cc2)on1 (racemic) and stop.
[reply] 2.64

[ask] Specify log10 IC50 for C[C@@H](NC(=O)[C@@H]1CN([C@@H]2CCCC[C@H]2O)CC[C@H]1NC(=O)c1cc(-c2ccc(F)cc2F)on1)c1ccccn1 and stop.
[reply] 1.41

###

# tested_system: human chemokine receptor CXCR7 (Homo sapiens (Human), UniProt P25106)
# procedure_summary: Tango CXCR7-bla U2OS beta-arrestin recruitment assay (beta-lactamase reporter, FRET), antagonism of CXCL12/SDF1-α;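 note: compounds preincubated 15 min before CXCL12 addition, then 22 h at 37 °C, FRET emission ratio read with CCF4-AM substrate after 2 h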
# Assay type: cell-based
# condition_set: antagonistic effect on CXCR7; Tango CXCR7-bla U2OS cells, CXCL12/SDF1-α at its EC80
For each of the molecules below, state its pIC50.
Please report pIC50 as the negative decimal logarithm of the molar concentration, giving only the number.

[ask] Specify pIC50 for O=C(N[C@@H]1CCN([C@@H]2CCCC[C@H]2F)C[C@H]1C(=O)O)c1cc(-c2ccc(F)cc2F)on1 and stop.
[reply] 6.32

[ask] Specify pIC50 for C[C@@H](NC(=O)[C@@H]1CN(C2CCCC2)CC[C@H]1NC(=O)c1cc(-c2c(F)cc(F)cc2F)on1)C1CCC1 (single isomer, unassigned) [Example 1.138a] and stop.
[reply] 6.36

[ask] Specify pIC50 for COCC(C)(C)NC(=O)[C@@H]1CN(CC2CC2)CC[C@H]1NC(=O)c1cc(-c2c(F)cc(F)cc2F)on1 (racemic) [Example 1.113] and stop.
[reply] 6.93

Source listed as patent US11306078B2.
